# PROTOCOL_TEXT: folding stability dG unfold from trypsin proteolysis; higher = more stable
Classify as follows. Reported folding stability dG unfold greater than or equal to 0.8 kcal/mol: true. Reported folding stability dG unfold below: false.

Example cases with answers are listed next.
SAGKKVTIKAIVRVKLANGEWFEAKVKEVTFDEETGEVTITVEVDGKTYTITVPLEDIELVDDAEEALKSAG [r5_15_TrROS_Hall]
true
SAGGSAGGSAGGMIIIIPTPKGTVALVIDENSDKPTLIEASPDEIPDLIEKGAKEVIILPSAGGSAGGSAGG [r7_266_TrMRF]
false
SAGGVPLLSAELLTTDETGNRTYRLVYYDPSTGKVYEVVVSQPFPTGDFNPFLFTASSLEEALELVTSSAGG [r13_26_TrMRF]
true
SAGGSAGGSAGNDVINKKYTYTITETTEEKTPTDDPVSTTITTPIEITVKAPKDEVVIPDSAGGSAGGSAGG [r11_174_JUSTAS]
false
SAGMKIKITLPNGAEFESNPETGKIEVIDPETGKPLIAYIPKDRPDIAFIFDPDNPKPLFEVKIDEIYPSAG [r5_761_TrMRF]
true

Now consider the entry below.
IN: Evaluate SAGGKEYYLVKIEIEVTPENGKKETIEIELIVDGNPEEALKKAKEIAEYLEKKGFKVEIKKIEVYPASAGGS [r16_525_TrMRF] : folding stability dG unfold at minimum 0.8 kcal/mol?
OUT: true
